// provenance: the supplement of paper PMC11208160

ASSAY PROCEDURE: recombinant UMI read abundance after kanamycin selection (control-corrected) (log10(CPM+1)); higher = more efficient recombination; extreme values may be limits of the assay; sequences stand for … in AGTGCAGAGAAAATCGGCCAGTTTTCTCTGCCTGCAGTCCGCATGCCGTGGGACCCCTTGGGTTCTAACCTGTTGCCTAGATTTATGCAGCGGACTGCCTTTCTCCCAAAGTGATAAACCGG…AGGTTGGTTTCACT; site = the 11-nt donor
Assignment: determine reported recombinant UMI read abundance (log10) for the given sequences.
Numbers only.

Completed entries (count: 4):
* AGCGCTCCATGGACCGGTTTTCCCGGTAATCCGTATTTGCC (site AGCGCTCCTGG) | 0
* GAACGGCCATGGACCGGTTTTCCCGGTAATCCGTATTTGCA (site GAATGGCCTTG) | 0
* TCTGAGACATGGACCGGTTTTCCCGGTAATCCGTATTTGCG (site TCCGAGACTCG) | 0.022
* CGTTAGGCATGGACCGGTTTTCCCGGTAATCCGTATTTGCT (site CGTTAGGCTAG) | 0.924

Query (sequence): GGATCGTCATGGACCGGTTTTCCCGGTAATCCGTATTTGCT (site GGATCGTCTAG) ; field requested: recombinant UMI read abundance (log10)
2.28

---

ASSAY PROCEDURE: recombinant barcode read abundance after kanamycin selection (control-corrected) (log10(CPM+1)); higher = more efficient recombination; sequences stand for … in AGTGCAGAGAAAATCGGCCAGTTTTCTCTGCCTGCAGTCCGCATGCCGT…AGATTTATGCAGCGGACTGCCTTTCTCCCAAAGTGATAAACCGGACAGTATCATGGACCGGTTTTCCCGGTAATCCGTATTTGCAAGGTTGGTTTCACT; site = the 11-nt target
MEASURED PARAMETER: recombinant barcode read abundance (log10)
Numbers only.

// below: answered sequences
* ACCAAGACTTGGGTTCTAACCTGTTGCCG (site TCCAAGACTCT) | 0.00901
* TCCGTGGCTTGGGTTCTAACCTGTTGCCT (site TCCGTGACTAG) | 0.121
* CTTGGATCTTGGGTTCTAACCTGTTGCCT (site CTTGGACCTAG) | 0.116
* GGCTTACCTTGGGTTCTAACCTGTTGCCT (site CGCTTACCTAG) | 0.0687
* AGGCGTCCTTGGGTTCTAACCTGTTGCCC (site AGGCGTCCTAG) | 0.417
* GGGACCACTTGGGTTCTAACCTGTTGCTA (site GGGACCACTTA) | 1.77
* TGGACGTCTTGGGTTCTAACCTGTTGCCT (site TGGACGCCTAG) | 0.125
* TAATCTCCTTGGGTTCTAACCTGTTGCGT (site GGTGGCTCTTG) | 0.0934

# batch size: 2; output recombinant barcode read abundance (log10) per entry
1. GGAGGGACTTGGGTTCTAACCTGTTGCGT (site GGTCGGACTAC)
2. AGGAGCCCTTGGGTTCTAACCTGTTGCTA (site AGGAGCCCTTA)

[0.0283, 1.38]

---

ASSAY PROCEDURE: recombinant barcode read abundance after kanamycin selection (control-corrected) (log10(CPM+1)); higher = more efficient recombination; sequences stand for … in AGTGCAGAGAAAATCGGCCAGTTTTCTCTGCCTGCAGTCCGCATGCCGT…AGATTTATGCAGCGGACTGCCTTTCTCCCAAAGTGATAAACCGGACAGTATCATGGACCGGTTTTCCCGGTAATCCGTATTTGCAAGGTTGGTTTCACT; site = the 11-nt target
Provide the reported recombinant barcode read abundance (log10) of each item.
One number for each entry.

Illustrative cases are given below, each with its answer.
* GGACGACCTTGGGTTCTAACCTGTTGCCT (site GGACGGCCTAG) | 0.412
* TCCGTGTCTTGGGTTCTAACCTGTTGCCT (site TCCGTGTCTAG) | 2.24
* CAAGTGGCTTGGGTTCTAACCTGTTGCCT (site CAAGTAGCTAG) | 0.417
* GATACTACTTGGGTTCTAACCTGTTGCAG (site GATGCTACTCT) | 0.11
* CATGAGACTTGGGTTCTAACCTGTTGCGG (site CATGAGACTCC) | 2.18
* TGAGTCCCTTGGGTTCTAACCTGTTGCTT (site TGAGTGCCTAA) | 0.0566
* GGAGTGACTTGGGTTCTAACCTGTTGCTA (site GGAGTGACTAA) | 0.183
* CCTCAGGCTTGGGTTCTAACCTGTTGCCT (site CCTCAGGCTTG) | 0.204
* CGGCGTGCTTGGGTTCTAACCTGTTGCCT (site CTGCGTGCTAG) | 0.161
* CCTTTACCTTGGGTTCTAACCTGTTGCCT (site GCTTTACCTAG) | 0.0546

// each listed sequence needs a value for recombinant barcode read abundance (log10)
1. ATGGTGGCTTGGGTTCTAACCTGTTGCCT (site ATGGTGTCTAG)
2. TAGAACACTTGGGTTCTAACCTGTTGCTG (site TAGAACACTTA)
3. CTAGACTCTTGGGTTCTAACCTGTTGCAG (site CTAGACTCTCT)
4. TAGTCCGCTTGGGTTCTAACCTGTTGCGG (site TAGTCCGCTCC)
5. GTCTTCTCTTGGGTTCTAACCTGTTGCTT (site GTCTTCTCTAA)
6. GTAGCACCTTGGGTTCTAACCTGTTGCTT (site GTATGACCTAA)
7. TAGTAGTCTTGGGTTCTAACCTGTTGCGT (site TAGTAGTCTAT)

1. 0.241
2. 0.0894
3. 2.42
4. 0.0626
5. 0.487
6. 0.323
7. 2.34
